Measured target: human GLP-1 receptor (human, UniProt P43220 24-463)
Protocol summary: cell-based or functional assay

>  <Binder>
S{Beta-27}-[2-[2-[[2-[2-[2-[[2-[2-[2-[[(4S)-4-carboxy-4-(17-carboxyheptadecanoyl-amino)butanoyl]amino]ethoxy]ethoxy]acetyl]amino]ethoxy]ethoxy]acetyl]amino]-eth … (ligand, Cys27 of the GLP-1 part (GLP-1(7-37) numbering; residue 21 of the chain) S-alkylated with substituent Chem. 7) HGEGTFTSDVSSYLEEQAAKCFIAWLVKGGGGAQPGAQPGAQPGAQPGAQPGAQPGAQPGAQPGAQPGAQPGAQPGAQPGAQPGAQPGAQPGAQPAHPIPDSSPLLQFGGQVRQRYLYTDDAQQTEAHLEIREDGTVGGAADQSPESLLQLKALKPGVIQILGVKTSRFLCQRPDGALYGSLHFDPEACSFRELLLEDGYNVYQSEAHGLPLHLPGQKSPHRDPAPRGPARFLPLPGLPPALPEPPGILAPQPPDVGSSDPLSLVGGSQGRSPSYES

>  <GLP-1 receptor potency [EC50] pM 0% HSA, pM>
9.5

$$$$
